Just for reference, PubChem BioAssay AID1996 is where these values come from.

Reported values of solubility kinetic for individual entries
protocol conditions: buffer; pH 7.4; 200.0 µM

Observe how each entry below is paired with its result.
O/N=C/c1ccc2ccccc2n1: > 25.8 µg/mL
COc1ccc(C2NC(=O)N(C)C(C)=C2[N+](=O)[O-])cc1 (configuration not stated): > 41.6 µg/mL
CC(C)c1nnc(NC(=O)C2CCCO2)s1 (configuration not stated): > 36.2 µg/mL
CC1(C)Cc2c(sc3nc(SCC(=O)O)nc(N)c23)CO1: > 48.8 µg/mL
CC1CCCCC1NC(=O)c1ccco1 (configuration not stated): > 31.1 µg/mL
O=C(NC1=NCCCCC1)c1cccc2ccccc12: > 40 µg/mL

solubility kinetic recorded for this compound, Cc1ccccc1C(=O)NC1CCN(CC(=O)N2CCCCC2C)CC1 (configuration not stated) , is > 53.6 µg/mL
